target: human Farnesoid X Receptor (FXR) ligand binding domain (GST-FXR LBD) (Homo sapiens, UniProt Q96RI1); construct: purchased Invitrogen; assay: Human GST-FXR LBD co-activator interaction assay (HTRF); format: biochemical; settings: GST-FXR LBD / biotin-SRC-1 peptide FRET; response relative to GW4064; read-out: FXR Co-activator interaction assay (EC50)
Sequence (Q96RI1 193-472 isoform Q96RI1-2): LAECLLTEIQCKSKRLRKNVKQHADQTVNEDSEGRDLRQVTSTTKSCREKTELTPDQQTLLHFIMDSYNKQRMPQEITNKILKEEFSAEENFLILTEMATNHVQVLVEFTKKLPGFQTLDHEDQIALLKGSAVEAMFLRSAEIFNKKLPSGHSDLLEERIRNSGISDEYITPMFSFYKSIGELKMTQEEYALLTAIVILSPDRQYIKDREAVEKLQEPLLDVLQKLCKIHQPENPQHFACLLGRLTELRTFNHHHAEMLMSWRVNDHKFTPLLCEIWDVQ
ATTRIBUTE_MEASURED: EC50 (nM)

> print(dat)
                                    compound  obs.value
 1  O=C(O)c1cc(C2CC2)nc(N2C3CC[C@H]2CC(OCc2c(-c4ccccc4C(F)(F)F)noc2C2CC2)C3)n1 (stereo partly shown) [Example 30-43]        4.6
 2  Cc1c(N2[C@@H]3CC[C@H]2C[C@@H](OCc2c(-c4ccccc4C4CC4)noc2C2CC2)C3)ccc2oc(C(=O)O)cc12 [Example 28-8]       10.4
 3  O=C(O)c1nsc2cc(N3[C@@H]4CC[C@H]3C[C@@H](OCc3c(-c5ccccc5C5CC5)noc3C3CC3)C4)ccc12 [Example 28-22]        0.2
 4  O=C(NCCS(=O)(=O)O)c1cc(F)c2nc(N3C4CC[C@H]3C[C@H](OCc3c(-c5ccccc5C(F)(F)F)noc3C3CC3)C4)sc2c1 [Example 16-3]        1.2
 5  O=C(O)c1cc(F)c(N2C3CC[C@H]2CC(OCc2c(-c4ccccc4OC(F)(F)F)noc2C2CC2)C3)c(F)c1 (stereo partly shown) [Example 24-1B]          8
 6  O=C(O)c1cc(F)c2nc(N3C4CC[C@H]3C[C@H](OCc3c(C5CCC6(CC5)CC6)noc3C3CC3)C4)sc2c1 [Example 13-2B]       0.53
 7  O=C(O)CNC(=O)c1cc(F)c2nc(N3C4CC[C@H]3C[C@H](OCc3c(-c5ccccc5C(F)(F)F)noc3C3CC3)C4)sc2c1 [Example 15-4]        0.8
 8  Cc1ccccc1-c1noc(C2CC2)c1COC1CC2CC[C@@H](C1)N2c1nc2c(F)cc(C(=O)O)cc2s1 (stereo partly shown) [Example 30-1]        0.3
 9  COc1cc(C(=O)O)cc2sc(N3C4CC[C@H]3C[C@H](OCc3c(C5CCCCC5)noc3C3CC3)C4)nc12 [Example 9-2]         11
10  COC(=O)c1cccc(N2C3CC[C@H]2CC(OCc2c(-c4ccccc4C(F)(F)F)noc2C2CC2)C3)n1 (stereo partly shown) [Example 21-6A]         60
